# study-system: T1, DrRuvC (Deinococcus radiodurans, UniProt Q9RX75 1-179)
# T1 sequence: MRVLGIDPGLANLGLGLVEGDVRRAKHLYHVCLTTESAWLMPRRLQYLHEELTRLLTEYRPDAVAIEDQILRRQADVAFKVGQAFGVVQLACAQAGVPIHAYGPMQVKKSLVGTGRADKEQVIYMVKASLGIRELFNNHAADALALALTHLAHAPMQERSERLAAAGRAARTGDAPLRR
# experiment-notes: EMSA; no obvious specific complex band; EMSA: 100 nM 6-FAM substrate, 50 mM Tris-HCl pH 8.0, 125 mM NaCl, 10 ug/mL BSA, 1 mM TCEP, 5% glycerol, 30 C 10 min; 5% native PAGE in 0.5x Tris-borate
# experimental-conditions: protein: recombinant; tags: N-terminal His-MBP-TEV, removed by TEV; chain copies: 2; label: 5'-6-FAM on J31-1; blunt, nick between J31-5 and J31-7

binder: nicked duplex (dsDNA) DNA 1: GCTAGCCACAGCCATTCGTACGATTGCGGGA DNA 2: TCCCGCAATCGTACG DNA 3: AATGGCTGTGGCTAGC
Kd: ~408 nM
